# PROCEDURE_SUMMARY: NCI Yeast Anticancer Drug Screen. Data for the rad50 strain (AID 155)
# STUDY_CONDITIONS: S. cerevisiae rad50 strain growth inhibition; at 50.0 µM
Compounds without any hit were thinned out: in the full panel of roughly 79,000, 15% have a hit. Calls of active or inactive are those of the source. Cut-off read from the data, not from the text of the source: active = growth inhibition above about 70%; inactive = the rest.
Outcome codes: active, inactive

compound="O=c1ccn(C2OC(CO)C(O)C2Cl)c(=O)[nH]1 (centres undefined)" assigned_label=inactive
compound="O=S(Cc1cc2c(cc1Br)OCO2)c1ccccc1 (centres undefined)" assigned_label=inactive
compound=Cc1cc(N(CCC#N)CCC#N)ccc1/C(N=Nc1ccc([N+](=O)[O-])cc1)=N\NC(=O)c1cc(Cl)ccc1O assigned_label=inactive
compound=COc1ccccc1CC/C(C)=N/NS(=O)(=O)c1ccc(C)cc1 assigned_label=inactive
compound=c1scc2c1COCCOCCOCCOCCOCCOCCOC2 assigned_label=inactive
compound=COC(=O)N/C(C)=N/OCc1ccccc1 assigned_label=inactive
compound=C1CCN=C(N2CCCCCC2)CC1 assigned_label=inactive
compound="CC1COC(c2ccc(Cl)cc2Cl)O1 (centres undefined)" assigned_label=inactive
compound=NC(=O)NNc1ccccc1 assigned_label=inactive
compound=O=C(COc1cccc(Cl)c1)Nc1ccc(C(=O)CCl)cc1 assigned_label=inactive
compound="CC(C)NCC(O)COc1cccc2ccccc12 (centres undefined)" assigned_label=inactive
compound=CC(=O)Nc1cccc2[nH]c(=O)c3ccccc3c12 assigned_label=inactive
compound=Cc1ccccc1SCC(N)=O assigned_label=inactive
compound=CCN(CC)c1nc(C(N)=O)c([N+](=O)[O-])c(N(CC)CC)n1 assigned_label=inactive
compound="CCC(=O)OCC(OC(=O)CC)C(OC(=O)CC)C(OC(=O)CC)C(COC(=O)CC)OC(=O)CC (centres undefined)" assigned_label=inactive
compound="CC(C(=O)O)C1Nc2ccccc2NC1=O (centres undefined)" assigned_label=inactive
compound=Nc1ncnc(N)c1NC(=O)c1cccc(C(=O)c2ccccc2)c1 assigned_label=inactive
compound="c1ccc(C2Nc3ccccc3C3OCCCC23)cc1 (centres undefined)" assigned_label=inactive
compound="O=C(CC(C(=O)c1ccc(F)cc1)c1ccsc1)c1cccs1 (centres undefined)" assigned_label=inactive
compound=O=c1cc(-c2cccc3ccccc23)[nH]c2ncccc12 assigned_label=inactive
compound=CCc1cc2c(ccc3ccccc32)c2c1CCC2 assigned_label=inactive
compound="C/C=C(/C)C(=O)OC12CC(C)C3(O)C(C=C(CO)C[C@]4(O)C(=O)C(C)=CC34)C1C2(C)C (some centres undefined)" assigned_label=inactive
compound=O=C(NO)C(=O)NO assigned_label=inactive
compound="Cc1ccc(S(=O)(=O)C2c3nc4ccccc4cc3-c3nc4ccccc4nc32)cc1 (centres undefined)" assigned_label=inactive
compound=COC1=C(C(C2=C(OC)CC(C)(C)CC2=O)c2ccc3c(c2)OCO3)C(=O)CC(C)(C)C1 assigned_label=inactive
compound="CCC(C(C)=O)C(C)C (centres undefined)" assigned_label=inactive
compound="CCOP(=O)(c1ccccc1)C(C)C (centres undefined)" assigned_label=inactive
compound=O=C(O)/C(Cc1ccc([N+](=O)[O-])cc1)=N\O assigned_label=inactive
compound="COc1ccccc1/C=C1\\CCC(CN(C)C)C1=O (centres undefined)" assigned_label=active
compound=Cc1ccc2c(Nc3ccc(NS(C)(=O)=O)cc3C)c3ccccc3nc2c1 assigned_label=inactive
compound=O=C(O)c1ccc(-c2ccc(C(=O)O)cc2I)c(I)c1 assigned_label=inactive
compound="O=C1C(c2ccccc2)C(c2ccccc2)C(c2ccccc2)C1c1ccccc1 (centres undefined)" assigned_label=inactive
compound=CC(=O)Oc1cc2c(cc1Cc1ccc3c(c1)OCO3)OCO2 assigned_label=inactive
compound=COc1cc([C@H]2CC(=O)C[C@H](c3cc(OC)c(OC)c(OC)c3)C23C(=O)c2ccccc2C3=O)cc(OC)c1OC assigned_label=inactive
compound="CCN(CC)P1(=O)C=C(C)C2C1C1C=C(C)C2P1(=O)N(CC)CC (centres undefined)" assigned_label=inactive
compound=CC(=O)NNC(=S)/N=C/C(C(=O)Nc1ccc([N+](=O)[O-])cc1)=C(\C)O assigned_label=inactive
compound=Cn1cc(C(C)(c2ccccc2)c2cn(C)c3ccccc23)c2ccccc21 assigned_label=inactive
compound="C=C(C)C(=O)N1c2ccc(OC)cc2CC1C(=O)OCC (centres undefined)" assigned_label=inactive
compound="COc1ccc(CC(N)C(=O)N2CCCCC2)cc1 (centres undefined)" assigned_label=inactive
compound="O/N=C1\\CCCCC1C(NO)c1ccccc1 (centres undefined)" assigned_label=inactive
compound="CC1(C)C2CCC(CCOC(=O)COc3ccc(Cl)cc3)C1C2 (centres undefined)" assigned_label=inactive
compound=NC(=Nc1ccc([N+](=O)[O-])cc1)c1ccccc1 assigned_label=inactive
compound="CCOC(=O)C1C=NC([N+](=O)[O-])=C1Br (centres undefined)" assigned_label=inactive
compound="CN1C(=O)NC(=O)C1(C)C=O (centres undefined)" assigned_label=inactive

Measured values drawn from PubChem BioAssay (NCI) for this set.
